# subject of test: Msn1 (UniProt P22148)
# Sequence: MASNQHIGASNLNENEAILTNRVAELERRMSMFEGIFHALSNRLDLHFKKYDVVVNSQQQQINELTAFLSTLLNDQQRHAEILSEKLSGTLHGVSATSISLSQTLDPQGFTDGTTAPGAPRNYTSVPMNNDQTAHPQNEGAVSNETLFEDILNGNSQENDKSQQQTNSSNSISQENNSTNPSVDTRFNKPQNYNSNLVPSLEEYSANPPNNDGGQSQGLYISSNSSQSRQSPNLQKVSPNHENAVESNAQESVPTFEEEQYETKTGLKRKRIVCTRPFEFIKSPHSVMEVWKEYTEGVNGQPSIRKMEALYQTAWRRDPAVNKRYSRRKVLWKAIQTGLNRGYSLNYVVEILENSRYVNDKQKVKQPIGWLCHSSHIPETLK
# assay protocol: PBM E-score (8-mer binding enrichment) (E-score (-0.5 to 0.5)); higher = stronger / more preferred TF binding
# condition info: protein concentration: 200 nM; construct: GST-full length
Whole data set: some 33,000 sequences, median “E-score (-0.5 to 0.5)” near -0.013, cut for the highest 2% near 0.3. What follows is part of a selection rich in the highest values, with near analogues and random picks from the rest.
endpoint name: PBM E-score

* AGAGAGAC | -0.0618
* ACAAGGAC | 0.358
* ACAGGGAT | -0.147
* GCAAGGAC | 0.395
* CGACAGGC | -0.152
* ATAAGGAT | 0.161
* CGAGACAG | -0.00132
* TGAGACAA | 0.397
* ATACATAT | 0.264

* * *

# subject of test: Msn1 (UniProt P22148)
# Sequence: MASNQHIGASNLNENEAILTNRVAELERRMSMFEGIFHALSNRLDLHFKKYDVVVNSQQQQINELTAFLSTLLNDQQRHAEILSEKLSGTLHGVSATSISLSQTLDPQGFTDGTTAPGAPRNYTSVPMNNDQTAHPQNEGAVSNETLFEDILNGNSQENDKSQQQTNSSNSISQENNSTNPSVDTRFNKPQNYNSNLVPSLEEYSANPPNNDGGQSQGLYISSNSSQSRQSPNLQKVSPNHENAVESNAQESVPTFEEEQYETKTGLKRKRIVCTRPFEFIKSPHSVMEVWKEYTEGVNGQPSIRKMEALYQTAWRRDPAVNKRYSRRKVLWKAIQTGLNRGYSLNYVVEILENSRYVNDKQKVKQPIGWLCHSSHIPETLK
# assay protocol: PBM E-score (8-mer binding enrichment) (E-score (-0.5 to 0.5)); higher = stronger / more preferred TF binding
# condition info: protein concentration: 200 nM; construct: GST-full length
The full ranking holds about 33,000 sequences; the median of “E-score (-0.5 to 0.5)” is about -0.013, and the highest 2% start at about 0.3. Shown is part of a subset that was picked to be rich in the highest values.
# cutoff 0.1 applies to PBM E-score; >= gives TRUE, < gives FALSE

- CAGAGGAC: FALSE
- AGGTAACA: TRUE
- GAGACCTA: FALSE
- ATGTACAG: TRUE
- ATAGGGCC: FALSE
- AATATTGG: FALSE
- GACAGAAA: TRUE
- ATGTACAT: TRUE
- TATATTAA: TRUE
- ATGTACGA: TRUE
- TACAGACA: TRUE
- CAACCAGC: FALSE
- ATGTACAA: TRUE
- GACAGACA: TRUE
